The origin of these recorded values is PubChem BioAssay.

# Test Target: Neurogenic locus notch homolog protein 2 (Homo sapiens)
# Measurement Description: small molecules binding Notch2 protein – biochemical, small-molecule microarray, 635 nm fluorescence, stem cell growth factors, primary screen (AID 1073)
# Condition Set: higher = more signal
Decide using composite z-score: a value greater than or equal to 0.9 is Yes, a smaller one is No.

> print(dat)
                                   molecule  assigned.label
1  CN(C)CCCNC(=O)[C@@H]1c2ccccc2C(=O)N(Cc2ccccc2C(F)(F)F)[C@H]1c1ccc(CO)cc1              No
2  CCCC=C(CCC)[C@@H](NC(=O)c1ccc(C(F)(F)F)cc1)c1ccc(C(F)(F)F)cc1             Yes
3  CCCN1C(=O)[C@]2(CCC(=O)OC(C)(C)C)N=C(c3ccc(OCCCO)cc3)O[C@@H]2c2ccccc21              No
4  CCCCCCc1nc(-c2ccc(-c3ccc(Cl)c(Cl)c3)o2)cc2c1[Si](C(C)C)(C(C)C)OC2              No
5  COc1ccc(C#Cc2ccc3c(c2)[C@]2(C(=O)N3)[C@H](C(=O)O)[C@H]3C(=O)O[C@H](c4ccccc4)[C@H](c4ccccc4)N3[C@@H]2c2ccccc2OCCO)cc1             Yes
6  O=C1NC(=O)C2C1C=CC(C(O)c1ccc(B(O)O)cc1)N2Nc1ccc(Cl)cc1Cl (configuration not stated)             Yes
